Could you please report measured pIC50 for the items listed next?
measuredTarget: MET (human) (Homo sapiens, UniProt P08581)
Sequence (P08581 25-1390): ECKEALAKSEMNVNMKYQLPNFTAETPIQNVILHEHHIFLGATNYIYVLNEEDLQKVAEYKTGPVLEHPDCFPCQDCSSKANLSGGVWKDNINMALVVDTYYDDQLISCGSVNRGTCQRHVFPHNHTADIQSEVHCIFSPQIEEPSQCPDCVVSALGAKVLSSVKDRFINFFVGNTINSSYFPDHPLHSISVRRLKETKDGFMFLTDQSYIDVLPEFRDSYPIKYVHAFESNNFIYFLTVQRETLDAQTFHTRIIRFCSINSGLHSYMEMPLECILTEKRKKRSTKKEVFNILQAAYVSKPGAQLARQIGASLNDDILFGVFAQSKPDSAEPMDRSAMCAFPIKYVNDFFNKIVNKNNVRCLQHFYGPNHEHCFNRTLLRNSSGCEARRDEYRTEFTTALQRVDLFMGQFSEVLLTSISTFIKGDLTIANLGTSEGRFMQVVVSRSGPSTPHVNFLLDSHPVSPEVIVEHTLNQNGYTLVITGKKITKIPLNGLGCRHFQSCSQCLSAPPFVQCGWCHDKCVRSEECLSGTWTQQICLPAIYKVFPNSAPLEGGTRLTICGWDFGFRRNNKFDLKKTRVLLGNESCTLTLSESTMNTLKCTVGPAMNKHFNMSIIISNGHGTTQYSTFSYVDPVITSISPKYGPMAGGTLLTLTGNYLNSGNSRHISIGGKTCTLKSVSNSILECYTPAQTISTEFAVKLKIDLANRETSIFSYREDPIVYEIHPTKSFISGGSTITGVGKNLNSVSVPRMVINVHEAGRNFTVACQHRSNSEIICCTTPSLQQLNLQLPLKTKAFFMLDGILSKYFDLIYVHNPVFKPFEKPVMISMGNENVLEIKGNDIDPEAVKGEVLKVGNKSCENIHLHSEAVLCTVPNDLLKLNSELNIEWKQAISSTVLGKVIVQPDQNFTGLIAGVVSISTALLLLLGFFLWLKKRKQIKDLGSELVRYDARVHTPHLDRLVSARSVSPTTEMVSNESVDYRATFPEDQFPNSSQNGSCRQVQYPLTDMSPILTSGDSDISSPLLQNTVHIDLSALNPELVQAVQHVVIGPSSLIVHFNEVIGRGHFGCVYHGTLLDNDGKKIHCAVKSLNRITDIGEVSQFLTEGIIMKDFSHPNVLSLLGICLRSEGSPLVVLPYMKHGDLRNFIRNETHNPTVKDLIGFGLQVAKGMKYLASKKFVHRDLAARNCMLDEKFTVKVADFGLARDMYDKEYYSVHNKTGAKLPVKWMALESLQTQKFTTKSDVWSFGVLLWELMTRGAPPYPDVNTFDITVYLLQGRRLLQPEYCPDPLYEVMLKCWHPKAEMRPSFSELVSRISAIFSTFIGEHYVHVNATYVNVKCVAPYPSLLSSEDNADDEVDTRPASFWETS
methodDescription: MET (human) AlphaScreen kinase assay, Km of ATP
Format: biochemical
experimentalContext: AlphaScreen, Km of ATP; read-out: Met biochemical IC50
pIC50: −log10 of the molar value.

## Task // map "C[C@@H](Oc1c(N)ncc2c(-c3cccc(C(=O)O)c3)coc12)c1c(Cl)ccc(F)c1Cl" to recorded pIC50 (system: MET (human) (Homo sapiens, UniProt P08581))
## Result 5.30 to 6.30

## Task Same read-out for "COCCCNC(=O)c1coc2c(O[C@H](C)c3c(Cl)ccc(F)c3Cl)c(N)ncc12" ?
## Result 5.30 to 6.30

## Task Same question, "C[C@@H](Oc1c(N)ncc2c(C3=CCS(=O)(=O)CC3)coc12)c1c(Cl)ccc(F)c1Cl" this time
## Result > 6.30

## Task Also CC(Oc1c(N)ncc2c(-c3cnn(C4CCNCC4)c3)coc12)c1c(F)cccc1F (stereo not drawn) ?
## Result > 6.30

## Task Next compound: "C[C@@H](Oc1c(N)ncc2c(-c3cnn(CCN4CCOCC4)c3)coc12)c1c(Cl)ccc(F)c1Cl"
## Result 5.30 to 6.30

## Task Field entry: "C[C@@H](Oc1c(N)ncc2c(-c3ccc(N4CCN(C(N)=O)CC4)cc3)coc12)c1c(Cl)ccc(F)c1Cl"
## Result 5.30 to 6.30

## Task Here is the next compound: COC(=O)c1cccc(C(C)Oc2c(N)ncc3c(-c4cnn(C5CCNCC5)c4)coc23)c1 (stereo not drawn)
## Result 5.30 to 6.30

## Task Please do the same for "C[C@@H](Oc1c(N)ncc2c(C3=CCN(CC(N)=O)CC3)coc12)c1c(Cl)ccc(F)c1Cl" as well.
## Result > 6.30

## Task // query: CC(Oc1c(N)ncc2c(-c3cnn(C4CCNCC4)c3)coc12)c1cccc(C#N)c1 (stereo not drawn)
## Result > 6.30

## Task Please do the same for "C[C@@H](Oc1c(N)ncc2c(C3=CCN(C(=O)C(C)(C)N)CC3)coc12)c1c(Cl)ccc(F)c1Cl" as well.
## Result > 6.30

## Task Proceed to "Cc1ccsc1-c1coc2c(O[C@H](C)c3c(Cl)ccc(F)c3Cl)c(N)ncc12"
## Result 5.30 to 6.30

## Task What about this compound? "C[C@@H](Oc1c(N)ncc2c(-c3cncc(C(=O)NC(C)(C)C)c3)coc12)c1c(Cl)ccc(F)c1Cl"
## Result 5.30 to 6.30

## Task Another: CC(Oc1c(N)ncc2c(-c3cnn(C4CCNCC4)c3)coc12)c1ccc(F)cc1 (stereo not drawn)
## Result 5.30 to 6.30

## Task Try this compound too: "C[C@@H](Oc1c(N)ncc2c(-c3cccc(CN)c3)coc12)c1c(Cl)ccc(F)c1Cl"
## Result > 6.30

## Task Here is the next compound: Nc1ncc2c(-c3cnn(C4CCNCC4)c3)coc2c1OC1CCCc2cccc(Cl)c21 (stereo not drawn)
## Result 5.30 to 6.30

## Task Try this compound too: CC(Cc1cccc(F)c1)Oc1c(N)ncc2c(-c3cnn(C4CCNCC4)c3)coc12 (stereo not drawn)
## Result > 6.30

## Task Same again, this time with "COCCNC(=O)c1coc2c(O[C@H](C)c3c(Cl)ccc(F)c3Cl)c(N)ncc12"
## Result > 6.30

## Task Try this compound next: "C[C@@H](Oc1c(N)ncc2c(-c3cnn(C4CCNCC4)c3)c(C#CCCO)oc12)c1c(Cl)ccc(F)c1Cl"
## Result > 6.30

## Task What do you have for "C[C@@H](Oc1c(N)ncc2c(C3=CCN(C4CCC4)CC3)coc12)c1c(Cl)ccc(F)c1Cl" ?
## Result > 6.30

## Task Quick one: "C[C@@H](Oc1c(N)ncc2c(C3=CCN(C(=O)[C@@H]4CCCN4)CC3)coc12)c1c(Cl)ccc(F)c1Cl"
## Result > 6.30

## Task Same for "C[C@@H](Oc1c(N)ncc2c(-c3ccc(CN4CCC4)s3)coc12)c1c(Cl)ccc(F)c1Cl"
## Result > 6.30

## Task Same thing, different compound: "C[C@@H](Oc1c(N)ncc2c(-c3ccc(C(=O)N4CCN(C)CC4)cc3)coc12)c1c(Cl)ccc(F)c1Cl"
## Result > 6.30

## Task Now try "C[C@@H](Oc1c(N)ncc2c(-c3cscn3)coc12)c1c(Cl)ccc(F)c1Cl" .
## Result 5.30 to 6.30

## Task Thanks! And "C[C@@H](Oc1c(N)ncc2c(-c3cccc(NS(=O)(=O)CCN(C)C)c3)coc12)c1c(Cl)ccc(F)c1Cl" ?
## Result 5.30 to 6.30

## Task Try "C[C@@H](Oc1c(N)ncc2c(C3=CCN(C(=O)[C@@H](N)CO)CC3)coc12)c1c(Cl)ccc(F)c1Cl" next.
## Result > 6.30

## Task Subsequent entry: CC(Oc1c(N)ncc2c(-c3cnn(C4CCNCC4)c3)coc12)c1ccccc1OC(F)(F)F (stereo not drawn)
## Result 5.30 to 6.30

## Task And what about the compound C[C@@H](Oc1c(N)ncc2c(C3=CCN(CC(=O)N4CCC(O)C4)CC3)coc12)c1c(Cl)ccc(F)c1Cl (stereo partly drawn) ?
## Result > 6.30

## Task Next compound up: "C[C@@H](Oc1c(N)ncc2c(C3=CCN(C(=O)Nc4ccccc4Cl)CC3)coc12)c1c(Cl)ccc(F)c1Cl"
## Result 5.30 to 6.30

## Task Next: "C[C@@H](Oc1c(N)ncc2c(Br)coc12)c1c(Cl)ccc(F)c1Cl"
## Result 5.30 to 6.30

## Task Also CC(C)CC(Oc1c(N)ncc2c(-c3cnn(C4CCNCC4)c3)coc12)c1c(Cl)ccc(F)c1Cl (stereo not drawn) , if possible.
## Result 5.30 to 6.30

Provenance of the data: patent US8022206B2
